Data credit: patent US6391890B1

Where a name gives a salt, the structure may show the parent alone.
Reported melting point values for a set of molecules

Some solved cases for reference:
> print(dat)
                                   molecule                result
1  Cl.O=C(O)CCN1CCC(=C2c3ccccc3CSc3ccccc32)CC1  176 to 186 °C (dec.)
2  O=C(O)[C@@H]1CCCN(CCN2CCC(=C3c4ccccc4CSc4ccccc43)CC2)C1 (as salt: hydrochloride)         127 to 130 °C
3  Cl.O=C(O)CN1CCC(=C2c3ccccc3CSc3ccccc32)CC1         170 to 175 °C

Would you kindly share the measured melting point for O=C(O)C1CCCN(CCCN2CCC(=C3c4ccccc4CSc4ccccc43)CC2)C1 (stereo not shown) (as salt: hydrochloride) ?
245 to 255 °C (dec.)
